The measured values listed here are drawn from patent US20040186081A1.

Catalogue of Ki values
Target: UniProt Q04609
EXPERIMENTAL ENDPOINT: Ki

- O=C(O)c1cc(CCS)cc(C(=O)O)c1: 5.1 µM
- O=C(O)c1cc(C(=O)O)cc(P(=O)(O)O)c1: 14 µM
- O=C(O)c1ccc(CCS)c(C(=O)O)c1: 0.116 µM
- O=C(O)c1cc(CNCc2ccco2)cc(C(=O)O)c1: 50 µM
- O=C(O)c1ccc(Sc2ccccc2C(=O)O)c(C(=O)O)c1: 3.98 µM

* * *

Catalogue of IC50 values
Target: NAALADase (Homo sapiens)
Test: In vitro inhibition of NAALADase activity
Type: biochemical
Conditions: read-out: IC50
EXPERIMENTAL ENDPOINT: IC50 (nM)

• O=C(CSCCCC(Cc1cccc(-c2cccc(C(=O)O)c2)c1)C(=O)O)NO (stereo not drawn) = 23500
• O=C(O)C(CCCS)Oc1ccccc1 (stereo not drawn) = 555
• O=C(O)c1ccc(-c2cccc(CCS)c2C(=O)O)cc1 = 4.28
• COc1cc(C(=O)O)ccc1COc1cccc(CCS)c1C(=O)O = 7
• O=C(O)C(CCCS)Cc1ccccc1 (stereo not drawn) = 2270
• CC(C)(C)c1cc(CC(CCC(=O)NO)C(=O)O)cc(C(=O)O)c1 (stereo not drawn) = 0.2
• O=C(CSCCCC(Cc1cc(Oc2ccccc2)cc(C(=O)O)c1)C(=O)O)NO (stereo not drawn) = 3250
• O=C(O)c1cccc(CC(CCCS)C(=O)O)c1 (stereo not drawn) = 17
• O=C(O)C(CCCS)Cc1cccc(-c2ccccc2)c1 (stereo not drawn) = 181
• O=C(O)CCC(CCCSCC(=O)NO)C(=O)O (stereo not drawn) = 3000
• O=C(O)c1cc(CC(CCCS)C(=O)O)ccc1Cl (stereo not drawn) = 175

* * *

Catalogue of pIC50 values
Target: NAALADase (Homo sapiens, UniProt Q04609)
Sequence (Q04609 whole entry): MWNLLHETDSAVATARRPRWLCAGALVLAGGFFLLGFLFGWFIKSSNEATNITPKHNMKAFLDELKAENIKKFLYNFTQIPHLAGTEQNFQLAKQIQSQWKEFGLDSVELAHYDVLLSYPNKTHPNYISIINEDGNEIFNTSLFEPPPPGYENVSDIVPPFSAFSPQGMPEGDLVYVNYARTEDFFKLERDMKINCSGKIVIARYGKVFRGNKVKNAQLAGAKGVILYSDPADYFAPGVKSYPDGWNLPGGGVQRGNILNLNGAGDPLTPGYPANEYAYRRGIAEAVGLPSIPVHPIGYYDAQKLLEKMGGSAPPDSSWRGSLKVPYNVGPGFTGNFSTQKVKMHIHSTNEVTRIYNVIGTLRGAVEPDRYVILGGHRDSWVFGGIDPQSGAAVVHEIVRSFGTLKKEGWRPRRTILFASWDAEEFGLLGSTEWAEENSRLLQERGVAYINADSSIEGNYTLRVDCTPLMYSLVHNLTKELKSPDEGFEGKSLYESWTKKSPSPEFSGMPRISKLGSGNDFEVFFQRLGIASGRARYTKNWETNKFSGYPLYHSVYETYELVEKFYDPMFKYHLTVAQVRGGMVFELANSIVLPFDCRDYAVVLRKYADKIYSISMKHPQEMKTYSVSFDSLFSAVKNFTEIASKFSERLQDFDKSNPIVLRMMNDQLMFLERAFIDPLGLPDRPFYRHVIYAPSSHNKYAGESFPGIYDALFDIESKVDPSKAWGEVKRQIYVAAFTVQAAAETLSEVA
Assay: In vitro inhibition of NAALADase activity
Assay type: biochemical
Settings: read-out: IC50
pIC50: −log10 of the molar value.
EXPERIMENTAL ENDPOINT: pIC50

• O=C(CCOc1cccc(-c2cccc(C(=O)O)c2)c1C(=O)O)NO = 4.83
• CCC(SCCCC(Cc1cccc(C(=O)O)c1)C(=O)O)C(=O)NO (stereo not shown) = 5.48
• O=C(O)c1ccccc1COc1cccc(CCS)c1C(=O)O = 7.94
• O=C(CCCC(Cc1cccc(C(=O)O)c1)C(=O)O)NO (stereo not shown) = 7.18
• CCC(SCC(Cc1cccc(C(=O)O)c1)C(=O)O)C(=O)NO (stereo not shown) = 4.38
• O=C(O)Cc1cccc(OC(CCCS)C(=O)O)c1 (stereo not shown) = 7.19
• CCCC(SCCCC(Cc1cccc(C(=O)O)c1)C(=O)O)C(=O)NO (stereo not shown) = 5.82
• O=C(O)c1cccc(CC(CCCS)C(=O)O)c1 (single isomer, unassigned; (-)) = 7.48
• O=C(O)c1ccc(CC(CCCS)C(=O)O)cc1 (stereo not shown) = 7.23
• CS(=O)(=O)c1ccc(CC(CCCS)C(=O)O)cc1 (stereo not shown) = 6.68
• COc1cc(OC)cc(OC(CCCS)C(=O)O)c1 (stereo not shown) = 4.79
• O=C(O)c1cc(Br)cc(CC(CCCS)C(=O)O)c1 (stereo not shown) = 8.60
• O=C(O)c1c(CCS)cccc1OCc1ccccc1 = 7.94
• COc1ccc(C(=O)O)cc1CC(CCCS)C(=O)O (stereo not shown) = 7.59
• O=C(CSCCCC(Cc1cccc(-c2ccccc2)c1)C(=O)O)NO (stereo not shown) = 5.38
• O=C(O)c1ccc(CC(CCCS)C(=O)O)c2ccccc12 (stereo not shown) = 6.50
• CC(=O)c1ccc(OC(CCCS)C(=O)O)cc1 (stereo not shown) = 7.53
• O=C(O)c1cccc(CC(CCCS)C(=O)O)c1-c1ccccc1 (stereo not shown) = 7.15
• O=C(O)c1ccc(COc2cccc(CCS)c2C(=O)O)cc1Br = 10.01
• O=C(O)c1cc(CS)ccc1OCCc1ccccc1 = 6.73
• O=C(O)C(CCCS)Cc1c(F)c(F)c(F)c(F)c1F (stereo not shown) = 6.00
• O=C(CCCSCC(Cc1cccc(C(=O)O)c1)C(=O)O)NO (stereo not shown) = 5.22
• COc1ccc(OC)c(CC(CCCS)C(=O)O)c1 (stereo not shown) = 6.25
